These measurements were taken from patent US20260167721A1.

Target: T1, recombinant human CD3 epsilon/delta heterodimer (human, UniProt P07766 23-126; P04234 22-105)
T1 construct: Recombinant protein in solution (200-50 nM) in the Octet assay; also called hCD3 E/D; human CD3E/D
T1 sequence (P07766 23-126, stated change not applied, chain 1 of 2): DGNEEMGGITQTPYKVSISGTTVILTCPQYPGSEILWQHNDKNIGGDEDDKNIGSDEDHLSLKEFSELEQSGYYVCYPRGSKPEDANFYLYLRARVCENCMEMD
T1 sequence (P04234 22-105, stated change not applied, chain 2 of 2): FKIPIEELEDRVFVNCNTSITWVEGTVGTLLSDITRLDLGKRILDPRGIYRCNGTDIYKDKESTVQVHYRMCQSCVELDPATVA
Experiment: Octet BLI, mAb on FAB2G sensor, hCD3 E/D 200-50 nM; R^2 0.99
ENDPOINT_LABEL: Kd
Report as: number unit

BINDER	ENDPOINT_LABEL	MEASUREMENT
ABL-CD3-7 (antibody, V domains shown, Chimeric hybridoma mAb: human V, CH1, upper hinge; mouse middle hinge, CH2, CH3) VH: EVQLVESGGGLVKPGGSLRLSCAASGFTFSRYSMNWVRQAPGKGLKWVSSISSSGSYKYYADSVKGRFTISRDNAKNSLYLQMNSLRAEDTAVYYCAREPPTLGMDYWGQGTLVTVSS VL: NFMLTQPHSVSESPGKTVTISCTRSSGSIASNYVQWYQQRPGSSPTTVIYEDNQRPSGVPDRFSGSIDSSSNSASLTISGLKTEDEADYYCQSFDNSNRVFGGGTKLTVL	Kd	4.14 nM
ABL-CD3-43 (antibody, V domains shown, Chimeric hybridoma mAb: human V, CH1, upper hinge; mouse middle hinge, CH2, CH3) VH: EVQLVQSGAEVKKPGESLKISCKGSEYSFTTYWIAWVRQMPGKGLEWMGIIYPGDSDTTYSPSFQGQVTISADKSISIAFLQWSSLKASDTAMYYCARQGELDAFDIWGQGTMVTVSS VL: QSALTQPASVSGSPGQSITISCTGTSSDVGSYNLVSWYQQHPGKAPKLMIYEDIRRPSGVSNRFSASKSGDTASLTISGLQAEDEADYYCCSYAGSTTFAIFGGGTKLTVL	Kd	6.2 nM
ABL-CD3-48 (antibody, V domains shown, Chimeric hybridoma mAb: human V, CH1, upper hinge; mouse middle hinge, CH2, CH3) VH: EVQLVESGGGLVKPGGSLRLSCAASGFTFSSYTMNWVRQAPGKGLEWVSSISGSGSYIYYADSVKGRFTISRDNAKNSLYLQMNSLRAEDTAVYYCAREPPTLGMDYWGQGTLVTVSS VL: NFMLTQPHSVSESPGKTVTISCTRSSGSIASNYVQWYQQRPGSSPTTVIYEDNQRPSGVPDRFSGSIDSSSNSASLTISGLKTEDEADYYCQSFDSSNRVFGGGTKLTVL	Kd	11.5 nM

Please give Kd for each item listed below.
1. ABL-CD3-63 (antibody, V domains shown, Chimeric hybridoma mAb: human V, CH1, upper hinge; mouse middle hinge, CH2, CH3) VH: QVQLQESGPGLVKPSETLSLTCTVSGGSISSYYWSWIRQPAGKGLEWIGRIYTSGSTKYNPSLKSRVTMSVDTSKNQFSLKLISVTAADTAVYFCARERIRDLYFDYWGQGTLVTVSS VL: NFMLTQPHSVSESPGKTVTISCTRTSGSIASNYVQWYQQRPGSSPTTVIYEDNQRPSGVPDRFSGSIDSSSNSASLTISGLKTEDEAAYYCQSYDRSNRVFGGGTKLTVL
2. ABL-CD3-9 (antibody, V domains shown, Chimeric hybridoma mAb: human V, CH1, upper hinge; mouse middle hinge, CH2, CH3) VH: EVQLVDSGGGLVKPGGSLRLSCAASGFTFSSYSMNWVRQAPGKGLEWVSSVNSRGSYIYYADSVKGRFTISRDNAKNSLYLQMNSLRADDTAVYYCARDRRELLLDYWGQGTLVTVSS VL: SYELTQPPSVSVSPGQTARITCSGDALPKKYAYWYQQKSGQAPVLVIYEDSKRPSGIPERFSGSSSGTMATLTISGAQVEDEADYYCYSTDSSGNHCWVFGGGTKLTVL

1: 11.5 nM; 2: 70.8 nM
